Test system: NCI-H23 lung
Test: NCI-60 one-dose screen, 48 h (100 = growth as untreated, 0 = no growth, -100 = all killed)
Conditions: 10 µM unless noted
Compounds without any hit were thinned out: in the full panel of roughly 83,000, 20% have a hit. Activity calls are given as the source filed them. Rule for the calls: active = growth percent below 10; inactive = the rest.
experimentalReadout: growth

See these solved cases before continuing.
- compound: "Cc1ccc2c(c1)ncn2-c1ncnc2c1CC(C)c1ccccc1N2C (stereo not given)"
  subjectOfTest: "NCI-H23 lung"
  result: "24% (inactive)"
- compound: "COc1ccc(S(=O)(=O)NCCNc2nccc(-c3c(-c4ccccc4)nc4sccn34)n2)cc1"
  subjectOfTest: "NCI-H23 lung"
  result: "37% (inactive)"
- compound: "O=C1c2ccccc2C(=O)c2c1oc1oc3c(c(=O)c21)c(=O)n(-c1ccccc1)c1ccccc31"
  subjectOfTest: "NCI-H23 lung"
  result: "38.2% (inactive)"
- compound: "Cc1ccc2c(c1)C(=O)C(c1c(-c3[nH]c(=O)c4ccc(C)cc4c3O)c(O)c3ccccc3c1O)=NC2=O"
  subjectOfTest: "NCI-H23 lung"
  result: "15.5% (inactive)"

Looking up COc1cc(NCCCN=C(N)NC(N)=NC(C)C)c2ncccc2c1 , I found its growth recorded as 34.7% (inactive)
